test system: PIP5K1A; conditions: concentration: 1 μM, replicates: in singlicate; n = 1;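 further: KINOMEscan kinase panel screen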
Label yes (1) when %Inh is at or above 10%; anything below gets no (0).

{"columns": ["molecule", "group label"],
 "data": [
  ["CCn1c(-c2nonc2N)nc2c(-c3ccccc3)ncc(OCCCN)c21.O=C(O)C(F)(F)F.O=C(O)C(F)(F)F", "yes (1)"],
  ["CNc1nccc(-c2ccc3c(N)n[nH]c3c2)n1", "yes (1)"],
  ["Cc1cc(-c2ccnc(Nc3cccc(C#N)c3)n2)cc(C)c1O", "yes (1)"],
  ["CCNC(=O)/C=C/c1n[nH]c2cc(Sc3ccccc3C(=O)NC)ccc12", "no (0)"],
  ["Fc1cc(Cl)ccc1Nc1ccnc2cc(-c3ccc(CN4CCOCC4)o3)ccc12", "no (0)"],
  ["O=C(Nc1n[nH]c2nc(-c3cccc(O)c3)ccc12)C1CC1", "yes (1)"],
  ["Nc1ncnc2scc(-c3ccc(NC(=O)Cc4cc(F)ccc4F)cc3)c12.O=C(O)C(F)(F)F", "no (0)"],
  ["CC(=O)Nc1cn2nc(Oc3cccc(NC(=O)c4cccc(C(F)(F)F)c4)c3)ccc2n1", "yes (1)"],
  ["Nc1cccc(-c2ccc3c(N)n[nH]c3c2)c1", "no (0)"]
]}

Source listed as paper PMC5540273.
